# Test system: wheat (Triticum aestivum)
# PROTOCOL SUMMARY: Test A pre-/postemergence plant response
# Format: in vivo
# ASSAY CONTEXT: Postemergence, 500 g ai/ha; visual injury, 0 to 100 scale (0 no effect, 100 complete control), approx. ten days
Could you please report measured Wheat plant response rating for the items listed next?

Observed Wheat plant response rating on wheat (Triticum aestivum), entry Cc1ccc(-n2c(-c3cc(F)cc(F)c3)ncc(C(=O)C3=C(O)CCCC3=O)c2=O)cc1 , equals 50

Observed Wheat plant response rating, wheat (Triticum aestivum), CCn1c(-c2cccc(F)c2)ncc(C(=O)C2=C(O)C3CCC(C3)C2=O)c1=O (centres unmarked) : 40

// returns Wheat plant response rating for CCCn1c(-c2cc(Cl)cc(Cl)c2)ncc(C(=O)C2=C(O)CCCC2=O)c1=O with wheat (Triticum aestivum); value = 60

Here CCCn1c(-c2ccccc2)ncc(C(=O)C2=C(O)C3CCC(C3)C2=O)c1=O (centres unmarked) was tested on wheat (Triticum aestivum), and its Wheat plant response rating came to 50

For O=C1CCCC(O)=C1C(=O)c1cnc(-c2cccc(Br)c2)n(C2CCCCC2)c1=O on wheat (Triticum aestivum), measured Wheat plant response rating was 0

Summary line: O=C1CCCC(O)=C1C(=O)c1cnc(C2CC2)n(C2CCCCC2)c1=O , wheat (Triticum aestivum), reported Wheat plant response rating = 50

For C#CCn1c(-c2cc(F)cc(F)c2)ncc(C(=O)C2=C(O)CCCC2=O)c1=O on wheat (Triticum aestivum), measured Wheat plant response rating was 20

Note to self: Wheat plant response rating of CCCn1c(-c2ccco2)ncc(C(=O)C2=C(O)C3CCC(C3)C2=O)c1=O (centres unmarked) with wheat (Triticum aestivum) was 0
